The reported numbers originate from patent US9567322B2.

- testSystem: F508delCFTR (Homo sapiens, UniProt P13569, DEL508-508)
- Sequence (P13569 with tags, fused parts or gaps DEL508-508): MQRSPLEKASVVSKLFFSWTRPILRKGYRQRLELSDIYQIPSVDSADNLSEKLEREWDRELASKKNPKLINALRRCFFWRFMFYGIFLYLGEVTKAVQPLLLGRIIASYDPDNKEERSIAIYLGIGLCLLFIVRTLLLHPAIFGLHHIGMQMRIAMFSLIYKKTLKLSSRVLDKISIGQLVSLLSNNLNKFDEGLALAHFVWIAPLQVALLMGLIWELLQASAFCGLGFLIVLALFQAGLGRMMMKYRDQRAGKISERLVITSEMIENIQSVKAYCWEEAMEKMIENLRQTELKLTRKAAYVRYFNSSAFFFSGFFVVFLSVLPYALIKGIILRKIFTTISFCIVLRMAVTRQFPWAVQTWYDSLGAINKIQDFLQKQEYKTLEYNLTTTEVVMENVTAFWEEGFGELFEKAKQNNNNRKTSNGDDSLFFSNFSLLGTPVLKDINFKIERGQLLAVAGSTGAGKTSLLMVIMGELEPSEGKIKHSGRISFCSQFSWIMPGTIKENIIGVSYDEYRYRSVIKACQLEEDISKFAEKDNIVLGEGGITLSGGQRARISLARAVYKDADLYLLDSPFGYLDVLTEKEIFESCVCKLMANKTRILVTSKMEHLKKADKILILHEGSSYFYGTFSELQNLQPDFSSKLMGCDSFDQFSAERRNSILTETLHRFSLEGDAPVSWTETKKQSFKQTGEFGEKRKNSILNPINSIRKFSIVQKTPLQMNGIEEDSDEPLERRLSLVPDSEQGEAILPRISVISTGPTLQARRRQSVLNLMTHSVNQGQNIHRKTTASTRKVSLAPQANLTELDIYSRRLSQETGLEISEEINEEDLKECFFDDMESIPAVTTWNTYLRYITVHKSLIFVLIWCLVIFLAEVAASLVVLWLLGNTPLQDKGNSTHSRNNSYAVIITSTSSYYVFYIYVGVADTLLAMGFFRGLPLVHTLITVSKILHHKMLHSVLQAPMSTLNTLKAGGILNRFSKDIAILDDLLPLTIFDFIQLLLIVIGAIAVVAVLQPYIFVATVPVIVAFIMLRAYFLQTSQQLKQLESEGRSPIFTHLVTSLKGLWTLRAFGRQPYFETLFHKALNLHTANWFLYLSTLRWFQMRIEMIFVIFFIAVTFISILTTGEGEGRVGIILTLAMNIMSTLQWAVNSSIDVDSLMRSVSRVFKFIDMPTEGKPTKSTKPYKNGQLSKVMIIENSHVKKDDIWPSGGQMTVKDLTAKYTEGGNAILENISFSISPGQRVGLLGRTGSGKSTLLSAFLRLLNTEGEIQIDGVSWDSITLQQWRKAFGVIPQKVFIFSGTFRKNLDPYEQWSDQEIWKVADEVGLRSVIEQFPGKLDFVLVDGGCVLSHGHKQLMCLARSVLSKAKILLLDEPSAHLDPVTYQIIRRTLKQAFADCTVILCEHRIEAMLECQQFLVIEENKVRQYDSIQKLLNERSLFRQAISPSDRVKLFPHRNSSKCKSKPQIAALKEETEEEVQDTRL
- assayName: Cell Surface Expression-Horse Radish Peroxidase (CSE-HRP) assay
- recordedConditions: CFBE41o-F508delCFTR-HRP cells, cell surface expression, luminescence readout; 18-24 hours at 33° C.; highest concentration tested 20 μM, 8-point curve
pEC50: −log10 of the molar value.

{"molecule": "O=C(O)c1cccc([C@H]2C[C@H](NC(=O)C3(c4ccc5c(c4)OC(F)(F)O5)CC3)CCO2)c1 (racemic) [Example 5]", "testSystem": "F508delCFTR (Homo sapiens, UniProt P13569, DEL508-508)", "pEC50": "≤ 4.70"}
{"molecule": "CC(C)(O)c1cccc([C@H]2C[C@H](NC(=O)C3(c4ccc5c(c4)OC(F)(F)O5)CC3)CCO2)c1 (racemic) [Example 7]", "testSystem": "F508delCFTR (Homo sapiens, UniProt P13569, DEL508-508)", "pEC50": 5.25}
{"molecule": "O=C(O)c1cccc([C@@H]2C[C@H](NC(=O)C3(c4ccc5c(c4)OC(F)(F)O5)CC3)C[C@H](c3ccccc3)O2)c1 [Example 26]", "testSystem": "F508delCFTR (Homo sapiens, UniProt P13569, DEL508-508)", "pEC50": "≤ 4.70"}
